Hey, just so you know, these numbers are from the supplement of paper PMC11908140.

B1: library; numbered along this chain (parent)
chain: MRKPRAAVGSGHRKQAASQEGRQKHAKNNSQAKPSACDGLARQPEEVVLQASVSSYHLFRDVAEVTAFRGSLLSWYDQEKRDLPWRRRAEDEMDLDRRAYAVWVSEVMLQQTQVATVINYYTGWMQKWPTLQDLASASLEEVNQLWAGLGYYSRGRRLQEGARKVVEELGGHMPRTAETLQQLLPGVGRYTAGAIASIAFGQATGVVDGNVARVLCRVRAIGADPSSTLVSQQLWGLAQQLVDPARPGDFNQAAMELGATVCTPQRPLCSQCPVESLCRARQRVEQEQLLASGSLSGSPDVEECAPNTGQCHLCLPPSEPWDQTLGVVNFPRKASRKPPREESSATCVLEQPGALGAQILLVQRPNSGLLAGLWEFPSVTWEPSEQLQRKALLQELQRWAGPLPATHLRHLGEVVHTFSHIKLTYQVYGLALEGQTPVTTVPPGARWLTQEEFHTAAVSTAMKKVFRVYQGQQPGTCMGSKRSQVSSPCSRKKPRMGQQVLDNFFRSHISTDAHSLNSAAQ

# Variants of: B1
# assay_method_text: 8OG:A repair function score (normalized; synonymous = 0, nonsense = -1) (normalized log-likelihood score); higher = more repair activity (WT-like);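 also: cells sorted at 72 h after reporter transfection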
# conditions: with 8OG:A DNA repair reporter (GFP) in HEK-293 MUTYH KO cells
# cutoff -0.03 applies to 8OG:A repair function score; >= gives Y, < gives N

Please review the following examples before continuing.
Q: Confirm if 8OG:A repair function score reported for the variant R246W is -0.03 or above.
A: N

Q: Confirm if 8OG:A repair function score reported for the variant S197E is -0.03 or above.
A: N

Q: Confirm if 8OG:A repair function score reported for the variant L373V is -0.03 or above.
A: N

Others:
Q: Confirm if 8OG:A repair function score reported for the variant L241M is -0.03 or above.
A: N

Q: Confirm if 8OG:A repair function score reported for the variant P443F is -0.03 or above.
A: Y
